- PROTOCOL: qHTS Assay for Inhibitors of the ERK Signaling Pathway using a Homogeneous Screening Assay; also: nearly all actives have a fitted effect of over 55% in size
- RUN PARAMETERS: HEK293-V1b, vasopressin-stimulated pERK AlphaScreen; series mostly up to 57.5 µM
In all, about 72,000 compounds went through this assay and about 710 (0.99%) were called active. Inconclusive results (about 7%) are left out. Calls follow the shape of the dose curve; as a rule, active = well fitted inhibition curve with a large enough effect; inconclusive = small, poorly fitted or top-dose-only effect; inactive = no such curve, though single readings can be large or run the other way. Many of the other results were omitted from the sample, so actives are more common in it than they were.
A correct response names exactly one class from yes = active, no = inactive

Outcome logged for CSC1=NP(=S)(SC)N(C)c2nc3n(c21)CCC3 (stereo not given) in this assay:
yes

State the result this test recorded for `O=[N+]([O-])c1ccc(Cl)c(Cl)c1` .
no

Dear all, I need the recorded test outcome for CNC(C)[C@@H](O)c1ccccc1 (stereo not given in full) , thank you.
no

Dear colleague, could you share the recorded outcome for CN1[C@@H]2CC[C@H]1CC(OC(=O)c1cc(Cl)cc(Cl)c1)C2 (stereo not given in full) when you have a moment?
no

Per the assay record, what outcome was assigned to `CC(C)(Cc1c[nH]c2ccc(Cl)cc12)NCCOc1ccccc1OCC1CC1` ?
yes

Hey, what did the test say about `N#Cc1c(Cl)c(Cl)c(Cl)c(C#N)c1Cl` ?
yes

Recorded test call requested for `Clc1cccc(Cl)c1Cl`
no

Test call, this compound: C[N+]1(C)C2CC(OC(=O)C(CO)c3ccccc3)CC1[C@@H]1O[C@H]21 (stereo not given in full)
no

For `C[C@]12CC[C@H](O)CC1=CC[C@@H]1[C@H]2CC[C@]2(C)C(=O)CC[C@H]12` , which call appears in the assay record?
no

Name the outcome recorded for CC(C)C(N)C(=O)OCCOCn1cnc2c(=O)[nH]c(N)nc21 (stereo not given) in the assay.
no
